target: PcrV of P. aeruginosa strain PA103 (on TTSS-induced bacteria) (Pseudomonas aeruginosa strain PA103); experiment: cell-based or functional assay
Exercise: state measured Ratio (IC50 Fab 13.37/IC50 Nanobody), A549 cytotoxicity for each of the binders provided.
Numbers only, in fold.

BINDER	QUANTITATIVE_RESULT
Nanobody 335 (5H01-40GS-1E11) (VHH) EVQLVESGGGLVQPGGSLRLSCAASGSTLDYYAIGWFRQAPGKEREGVSCTSNSGSTYYGGSVKGRFTASRDNAKNTVYLQMNSLRPEDTAVYYCVATIGCATLGGTLDVQRYYYRGQGTLVTVSSGGGGSGGGGSGGGGSGGGGSGGGGSGGGGSGGGGSGGGGSEVQLVESGGGLVQPGGSLRLSCAASGSTRSVNPMAWFRQAPGRQREWVATISRSGYATYADSVKGRFTISGDNAKSSVYLQMNSLKPEDTAVYYCVTGTYWGQGTLVTVSS	1

Attention now turns to another entry.
Query block: State the recorded Ratio (IC50 Fab 13.37/IC50 Nanobody), A549 cytotoxicity for this entry: Nanobody 271 (7C10-40GS-14E10) (VHH) EVQLVESGGGLVQAGGSLRLSCTASGRTLSSYTMGWFRQAPGTEREFVAAMTRSGFNTYYADSVKGRFTISRDSTENTMALQMSSLKPEDTAVYYCTAGRGLTSYRADYWGQGTLVTVSSGGGGSGGGGSGGGGSGGGGSGGGGSGGGGSGGGGSGGGGSEVQLVESGGGLVQPGGSLRLSCAASGRIFSINTMGWYRQAPGKQRELVAGVTINAITNYADSVKGRFTISRDNAKNTVWLQMNSLKPEDTAVYYCHAWARSSGSAPYSQNWGQGTLVTVSS
Result block: 1
